I'd be grateful if you could share measured Total Binding at 4° C. (RFU) for these entries.
target: endogenously expressed human MSR1 on PMA-treated THP-1 cells (human) (UniProt P21757); experiment: confocal imaging, differentiated THP-1 cells, Alexa 488 secondary
Sequence (P21757 whole entry): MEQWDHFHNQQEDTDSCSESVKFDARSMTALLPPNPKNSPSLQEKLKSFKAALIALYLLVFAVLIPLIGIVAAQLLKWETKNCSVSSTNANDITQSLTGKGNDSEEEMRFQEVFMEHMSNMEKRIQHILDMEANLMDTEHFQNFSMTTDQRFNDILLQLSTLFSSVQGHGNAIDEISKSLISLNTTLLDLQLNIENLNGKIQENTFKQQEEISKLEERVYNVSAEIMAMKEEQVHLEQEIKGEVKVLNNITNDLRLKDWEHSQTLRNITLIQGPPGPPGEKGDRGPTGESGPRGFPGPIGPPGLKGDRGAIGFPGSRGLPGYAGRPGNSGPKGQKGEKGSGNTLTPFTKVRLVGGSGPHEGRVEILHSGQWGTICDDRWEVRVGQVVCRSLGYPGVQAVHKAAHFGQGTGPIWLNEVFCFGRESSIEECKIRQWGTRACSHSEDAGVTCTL
Only the number, expressed in RFU, is required.

Incoming: Return reported Total Binding at 4° C. (RFU). Input binder: H1H27754P-N297Q (antibody, human IgG1, V domains shown) VH: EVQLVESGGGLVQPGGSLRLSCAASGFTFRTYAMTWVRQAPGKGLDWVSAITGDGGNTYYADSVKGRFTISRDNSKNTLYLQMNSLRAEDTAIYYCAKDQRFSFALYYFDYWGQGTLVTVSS VL: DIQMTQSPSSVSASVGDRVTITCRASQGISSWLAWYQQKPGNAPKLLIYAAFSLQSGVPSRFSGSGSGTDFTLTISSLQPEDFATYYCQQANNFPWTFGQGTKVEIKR
Outgoing: 3.08e+06

Incoming: Return reported Total Binding at 4° C. (RFU). Input binder: H1H27734P-N297Q (antibody, human IgG1, V domains shown) VH: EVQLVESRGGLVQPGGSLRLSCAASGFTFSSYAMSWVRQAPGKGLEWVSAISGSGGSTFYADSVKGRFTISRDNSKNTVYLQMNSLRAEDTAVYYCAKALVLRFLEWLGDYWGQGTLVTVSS VL: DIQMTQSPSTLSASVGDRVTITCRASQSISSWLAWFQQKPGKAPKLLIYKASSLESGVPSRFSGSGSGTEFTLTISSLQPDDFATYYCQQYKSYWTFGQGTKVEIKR
Outgoing: 483000

Incoming: Return reported Total Binding at 4° C. (RFU). Input binder: H1H27739P-N297Q (antibody, human IgG1, V domains shown) VH: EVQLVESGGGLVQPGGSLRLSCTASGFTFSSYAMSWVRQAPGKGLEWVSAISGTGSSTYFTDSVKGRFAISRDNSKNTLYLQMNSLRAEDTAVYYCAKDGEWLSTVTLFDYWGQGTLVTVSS VL: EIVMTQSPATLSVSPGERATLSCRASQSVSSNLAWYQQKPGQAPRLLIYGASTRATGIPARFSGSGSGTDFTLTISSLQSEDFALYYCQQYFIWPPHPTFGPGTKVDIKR
Outgoing: 3.7e+06

Incoming: Return reported Total Binding at 4° C. (RFU). Input binder: H1H21227N-N297Q (antibody, human IgG1, V domains shown) VH: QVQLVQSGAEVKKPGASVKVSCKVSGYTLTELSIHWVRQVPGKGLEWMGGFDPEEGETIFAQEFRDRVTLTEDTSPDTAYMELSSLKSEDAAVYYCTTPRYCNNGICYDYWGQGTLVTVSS VL: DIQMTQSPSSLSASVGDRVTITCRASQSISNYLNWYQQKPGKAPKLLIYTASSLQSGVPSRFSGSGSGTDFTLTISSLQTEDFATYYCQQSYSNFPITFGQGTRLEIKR
Outgoing: 1.8e+06

Incoming: Return reported Total Binding at 4° C. (RFU). Input binder: H1H27729P-N297Q (antibody, human IgG1, V domains shown) VH: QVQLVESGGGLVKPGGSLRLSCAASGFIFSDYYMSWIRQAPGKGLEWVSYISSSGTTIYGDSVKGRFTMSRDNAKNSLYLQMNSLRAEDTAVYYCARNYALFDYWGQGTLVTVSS VL: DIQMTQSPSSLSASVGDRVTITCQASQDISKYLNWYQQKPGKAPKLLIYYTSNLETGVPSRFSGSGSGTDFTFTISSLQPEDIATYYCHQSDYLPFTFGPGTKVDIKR
Outgoing: 1.93e+06

Incoming: Return reported Total Binding at 4° C. (RFU). Input binder: H1H21234N-N297Q (antibody, human IgG1, V domains shown) VH: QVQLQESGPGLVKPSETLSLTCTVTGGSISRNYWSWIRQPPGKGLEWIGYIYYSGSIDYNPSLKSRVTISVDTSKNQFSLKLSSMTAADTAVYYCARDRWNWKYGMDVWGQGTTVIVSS VL: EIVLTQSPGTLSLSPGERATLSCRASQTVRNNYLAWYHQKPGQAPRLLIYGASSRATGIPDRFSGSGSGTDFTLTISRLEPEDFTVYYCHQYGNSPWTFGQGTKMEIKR
Outgoing: 1.95e+06

Incoming: Return reported Total Binding at 4° C. (RFU). Input binder: H1H27747P-N297Q (antibody, human IgG1, V domains shown) VH: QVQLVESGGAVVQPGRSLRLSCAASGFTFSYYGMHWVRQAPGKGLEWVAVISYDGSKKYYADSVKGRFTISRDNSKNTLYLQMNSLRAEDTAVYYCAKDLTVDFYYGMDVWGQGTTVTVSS VL: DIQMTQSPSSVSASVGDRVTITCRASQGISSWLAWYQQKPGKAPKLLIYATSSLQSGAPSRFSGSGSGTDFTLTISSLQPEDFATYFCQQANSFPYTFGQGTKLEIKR
Outgoing: 2.52e+06
